Parameter: viability. Scope: all listed entries.
ASSAY_PROTOCOL: HUVEC growth inhibition – cell-based, human, primary screen (AID 575);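 further: 100% = median of untreated cell wells with 0.1% DMSO on each plate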
STUDY_CONDITIONS: HUVEC proliferation, CellTiter-Glo luminescence, 72 h; at 10 µM; stronger effect = lower value
Provide only the numeric value, understood in %.

Consider the compound shown here: `Cc1ccc(-n2ncc3c(N4CCN(c5ccc(F)cc5)CC4)ncnc32)c(C)c1` What is its recorded viability?
91.8

Entry to check: `CN(C)CCNC(=O)c1ccc(COCC(F)(F)F)cc1`
104

Entry to check: `COc1ccc(S(=O)(=O)N(CCN2CCOCC2)Cc2cc(OC)ccc2OC)cc1`
96.2

Entry to check: `CCCC(=O)Nc1cc(-c2nnc(OC)c3ccccc23)ccc1N1CCOCC1`
84.6

Entry to check: `Cc1ccc(-c2nnc(N3CCN(C(=O)CN4C(=O)c5ccccc5C4=O)CC3)c3ccccc23)cc1`
73

Entry to check: `CC(=O)C1=C(NC(=O)c2ccccc2F)C[C@@H]2[C@H]1C2(C)C`
99.2

Entry to check: Cc1cccc(N2CCN(C(=O)C3CCCN(S(=O)(=O)c4c(C)noc4C)C3)CC2)c1C (stereo not given)
53.1

Entry to check: O=C(NC(NC1CCS(=O)(=O)C1)C(=O)c1cccs1)c1ccccc1 (stereo not given)
106

Entry to check: `Cc1cc(NS(=O)(=O)c2ccc(N)cc2)no1`
98.9

Entry to check: `CCCn1nc(CC(=O)O)c2ccccc2c1=O`
98.2

* * *

Parameter: inhibition. Scope: all listed entries.
ASSAY_PROTOCOL: growth suppression of yeast trafficking mutant, preliminary HTS, modulators of trafficking downstream of Golgi apparatus project, 1536-format plate, OD 615 nm (AID 637)
STUDY_CONDITIONS: yeast transport mutant growth, absorbance 615 nm, 18 h; stronger effect = higher value
Provide only the numeric value, understood in %.

Example results:
{"MOLECULE": "CC1CCCCN1C(=O)Cn1nnc(-c2cccnc2)n1 (configuration not stated)", "inhibition [%]": -1.13}
{"MOLECULE": "CCn1c(CNc2ccc(OC)cc2)nnc1SCC(=O)c1ccc(OC)cc1", "inhibition [%]": 0.33}
{"MOLECULE": "O=C(CN1CCN(c2nc(-c3ccccc3)cs2)CC1)Nc1ccc2c(c1)OCO2", "inhibition [%]": -7.1}

Consider the molecule shown here: `COC(=O)Cn1c(C)nc2c(sc3nc(C)cc(C)c32)c1=O` What is its recorded inhibition?
2.79

Entry to check: `Brc1ccc2[nH]c3nc(SCCN4CCOCC4)nnc3c2c1`
11.6

Entry to check: `COc1ccc(S(=O)(=O)Nc2cccc(C)n2)c2ccccc12`
4.43

Entry to check: `COc1ccc(-c2nnc(SCC(=O)Nc3cc(C)on3)n2C)cc1OC`
4.59

Entry to check: O=C1NC(c2ccccc2)(C(F)(F)F)SC2=NCCCN12 (configuration not stated)
-6.98

Entry to check: `CCOC(=O)c1sc(NC(=O)CSc2nnnn2-c2ccccc2)c(C(=O)OCC)c1C`
-6.83

Entry to check: Cc1ccc(NC(=O)COS(=O)c2ccc(C)cc2)cc1 (configuration not stated)
-0.63

Entry to check: `C=CCn1c(SCC(=O)Nc2ccccc2OC)nnc1-c1ccccn1`
-4.36

Entry to check: `Cn1c(=O)c2c(nc(Br)n2CCSc2nnnn2-c2ccccc2)n(C)c1=O`
-7.27

Entry to check: `CC(C)(C)c1cc(NC(=O)c2cc(F)c(F)c(F)c2F)no1`
-3.83

Entry to check: `CN(C1CCCCC1)S(=O)(=O)c1ccc(S(=O)(=O)N2CCCC2)cc1`
-4.92

Entry to check: `O=c1ccn(Cc2ccccc2Cl)cc1`
-3.33

Entry to check: `CCOc1ccc(OCC)c(NC(=O)C2CCN(c3ncccn3)CC2)c1`
-2.06

Entry to check: `COc1ccccc1CC(=O)NCc1ccc2c(c1)OCO2`
6.19

Entry to check: CCCc1ccc(C(C)NC(=O)c2cnccn2)cc1 (configuration not stated)
2.06

Entry to check: `C=C(C)COc1ccc(-c2nc(N)ncc2-c2ccc(OC)cc2)c(O)c1`
7.17

Entry to check: `Cn1c(=O)n(CCN2CCOCC2)c(=O)c2c1nc1n2CCN1c1ccccc1`
-2.54

* * *

ASSAY_PROTOCOL: reversal of MRP1-mediated doxorubicin resistance, pilot screen, H69AR cells, doxorubicin co-treatment (AID 601)
STUDY_CONDITIONS: H69AR cells + 2 uM doxorubicin, CellTiter-Glo, 72 h; measured here: viability with 2 uM doxorubicin; at 10 µM; stronger effect = lower value
Parameter: viability. Scope: all listed entries.
Provide only the numeric value, understood in %.

{"COMPOUND": "O=C(COc1ccc2c(c1)OCO2)NC12CC3CC(CC(C3)C1)C2", "MEASURED_QUANTITY": "viability", "MEASUREMENT_UNITS": "%", "OBS_VALUE": 86}
{"COMPOUND": "Cc1ccc2c(c1)sc1ncc(NC(=O)c3ccccc3)c(=O)n12", "MEASURED_QUANTITY": "viability", "MEASUREMENT_UNITS": "%", "OBS_VALUE": 88.3}
{"COMPOUND": "c1ccc(-c2nc3ccccc3nc2-c2ccccn2)nc1", "MEASURED_QUANTITY": "viability", "MEASUREMENT_UNITS": "%", "OBS_VALUE": 99.1}
{"COMPOUND": "COc1ccc(-c2noc(-c3ccccc3C(=O)Nc3cccnc3)n2)cc1", "MEASURED_QUANTITY": "viability", "MEASUREMENT_UNITS": "%", "OBS_VALUE": 73.3}

Consider the compound shown here: `CN(C)Cc1cn(CCC(=O)O)c2ccccc12` What is its recorded viability?
98.2

Entry to check: `Cc1cc(NC(=O)CSc2nc(C3CCCCC3)nc3ccccc23)no1`
63.9

Entry to check: `CCn1c(CCNC(=O)c2cccs2)nnc1SCC(=O)c1ccc(OC)cc1`
103

Entry to check: `COc1cc(NS(=O)(=O)c2ccc(N)cc2)ncn1`
65

Entry to check: `O=C(NCc1ccco1)c1cc2cc3ccc(Cl)cc3nc2o1`
2.98

Entry to check: O=C(c1ccco1)N1CCN(CC2CC3C=CC2C3)CC1 (centres undefined)
90.1

Entry to check: `O=C(COC(=O)C12CC3CC(CC(C3)C1)C2)NCc1ccco1`
86

Entry to check: `Cc1nn(-c2ccccc2)c2[nH]c(C(F)(F)F)cc(=O)c12`
118

Entry to check: `Cc1ccccc1NC(=O)CSc1nnc(Cc2cccn2C)n1-c1ccc(F)cc1`
102

Entry to check: `O=c1cc(C(F)F)oc2c1ccc1ccccc12`
91.6

Entry to check: `Cc1cnc(C(=O)Nc2nnc(C(C)C)s2)cn1`
81.2

Entry to check: Cc1ccc(-c2nnc(SC(C)C#N)n2N)cc1 (centres undefined)
83.1

Entry to check: `COc1ccc(-c2noc(CCN3C(=O)c4ccccc4C3=O)n2)cc1OC`
76.1

Entry to check: `O=C(NCCSCc1ccco1)Nc1cccc(Cl)c1`
84.2

Entry to check: `C(=N/n1c2ccccc2c2ccccc21)/c1ccco1`
89.6

* * *

ASSAY_PROTOCOL: 384-well plate pilot, post-Golgi transport modulator project, inhibition of yeast transport mutant growth (AID 636)
STUDY_CONDITIONS: absorbance 615 nm, about 18 h, stronger effect = higher value
MEASURED_QUANTITY: inhibition (%)
Provide only the numeric value, understood in %.

{"COMPOUND": "COc1cccc(C(=O)Nc2c(C(N)=O)oc3ccccc23)c1", "MEASUREMENT_UNITS": "%", "inhibition": -5.33}

Consider the compound shown here: CN(C)CC(C(=O)c1ccccc1)c1ccccc1 (stereo unspecified) What is its recorded inhibition?
2.95

Entry to check: `CCCN(CC1CC1)C(=O)Nc1ccccc1C`
-1.04

Entry to check: `CCN(CC)c1ccc2c(c1)CCCN2`
-4.21

Entry to check: `Cc1nn(-c2ccccc2)c2[nH]c(C(F)(F)F)cc(=O)c12`
-5.62

Entry to check: `OCCN1CCN(CCCN2c3ccccc3Sc3ccc(Cl)cc32)CC1`
-3.38

Entry to check: `Cc1cc(/C=c2/sc3nc4ccccc4n3c2=O)c(C)n1-c1ccccn1`
2.4

Entry to check: `O=C(NCc1ccco1)c1cccc(S(=O)(=O)N2CCCCC2)c1`
4.66

Entry to check: `CSc1ncc(Cl)c(C(=O)Nc2ccc(S(=O)(=O)N3CCOCC3)cc2)n1`
-7.67

Entry to check: `COc1ccccc1-n1nnnc1SCc1cc2c(cc1Br)OCO2`
-6.16

Entry to check: `C[C@]12CCC(=O)C=C1CC[C@@H]1[C@@H]2[C@@H](O)C[C@@]2(C)[C@H]1CC[C@]2(O)C(=O)CO`
-1.43
